From: patent US7964624B1

Target: full-length hepatitis C viral protein NS3•4A (Hepatitis C virus genotype 1a, UniProt P27958)
Construct: hexa-histidine (N); made in house; host or cells: Sf9 insect cells (baculovirus, pVL1392)
Assay: biochemical
Parameters: species or system HCV sub-type strain 1a
Conditions: Enzyme Assay 2 (HCV NS3 Peptide Cleavage Assay) activity, apparent Ki class
Reported Ki values for the following molecules.
outcome.measure: Ki

>>> experimental_value("CCC[C@H](NC(=O)[C@@H]1C[C@]2(CC(c3cccc(Cl)c3)=NO2)CN1C(=O)[C@@H](NC(=O)CC1CCCCC1)C(C)(C)C)C(=O)C(=O)N[C@@H](C)C(O)(c1ccccc1)c1ccccc1 [Compound 507]")
"> 500 nM"
>>> experimental_value("CCC[C@H](NC(=O)[C@@H]1C[C@]2(CC(c3cccc(Cl)c3)=NO2)CN1C(=O)[C@@H](CC(=O)NCc1ccccc1)C(C)C)C(=O)C(=O)NC1CC1 [Compound 10]")
"> 500 nM"
>>> experimental_value("CCC[C@H](NC(=O)[C@@H]1C[C@]2(CC(c3cc(Cl)c(OC)cc3C)=NO2)CN1C(=O)[C@@H](NC(=O)OC(C)(C)C)C(C)(C)C)C(=O)C(=O)NC1CC1 [Compound 628]")
"100 to 500 nM"
>>> experimental_value("CCC[C@H](NC(=O)[C@@H]1C[C@]2(CC(c3cccc(Cl)c3)=NO2)CN1C(=O)c1cccc(S(=O)(=O)N2CCc3ccccc3C2)c1)C(=O)C(=O)NC1CC1 [Compound 328]")
"> 500 nM"
>>> experimental_value("CNC(=O)C(=O)[C@H](CC1CC1)NC(=O)[C@@H]1C[C@]2(CC(c3cccc(Cl)c3)=NO2)CN1C(=O)[C@@H](NC(=O)CC(C)(C)OC)C(C)(C)C [Compound 773]")
"100 to 500 nM"
>>> experimental_value("CCC[C@H](NC(=O)[C@@H]1C[C@]2(CC(c3ccc(F)c(Cl)c3)=NO2)CN1C(=O)[C@@H](NC(=O)OC(C)(C)C)C(C)(C)C)C(=O)C(=O)NC1CC1 [Compound 629]")
"< 100 nM"
>>> experimental_value("CCC[C@H](NC(=O)[C@@H]1C[C@]2(CC(c3cccc(Cl)c3)=NO2)CN1C(=O)[C@@H](NC(=O)CC1CCOC(C)(C)C1)C(C)(C)C)C(=O)C(=O)NC1CC1 (some centres unmarked) [Compound 121]")
"< 100 nM"
>>> experimental_value("CCC[C@H](NC(=O)[C@@H]1C[C@]2(CC(c3cccc(Cl)c3)=NO2)CN1C(=O)[C@@H](NC(=O)CC1CCCCC1)C(C)(C)C)C(=O)C(=O)N(C)C [Compound 253]")
"> 500 nM"
>>> experimental_value("C=C[C@@H]1C[C@]1(NC(=O)[C@@H]1C[C@]2(CC(CC)=NO2)CN1C(=O)[C@@H](NC(=O)OC1CCCC1)C(C)(C)C)C(=O)NS(=O)(=O)C1CC1 [Compound 438]")
"100 to 500 nM"
>>> experimental_value("CCC[C@H](NC(=O)[C@@H]1C[C@]2(CC(c3cccc(Cl)c3)=NO2)CN1C(=O)[C@@H](NC(=O)CC1CCCCC1)C(C)(C)C)C(=O)C(=O)NCC1COc2ccccc2O1 (some centres unmarked) [Compound 141]")
"100 to 500 nM"
>>> experimental_value("CCC[C@H](NC(=O)[C@@H]1C[C@]2(CC(c3cccc(Cl)c3)=NO2)CN1C(=O)[C@@H](NC(=O)CC1CCCCC1)C(C)(C)C)C(=O)C(=O)Nc1cccc(C#N)c1 [Compound 588]")
"> 500 nM"
>>> experimental_value("CCOc1c(F)cc(C2=NO[C@]3(C2)C[C@@H](C(=O)N[C@@H](CC2CC2)C(=O)C(N)=O)N(C(=O)[C@@H](NC(=O)CC2CCOCC2)C(C)(C)C)C3)cc1Cl [Compound 67]")
"< 100 nM"
>>> experimental_value("CCC[C@H](NC(=O)[C@@H]1C[C@]2(CC(c3cc(Cl)cc(C)c3OC)=NO2)CN1C(=O)[C@@H](NC(=O)CC1CCCCC1)C(C)(C)C)C(=O)C(=O)NC1CC1 [Compound 643]")
"< 100 nM"
>>> experimental_value("CCC[C@H](NC(=O)[C@@H]1C[C@@]2(CC(c3cc(C)c(OC)c(Cl)c3)=NO2)CN1C(=O)[C@@H](NC(=O)CC1CCCCC1)C(C)(C)C)C(=O)C(=O)NC1CC1 [Compound 111]")
"100 to 500 nM"
>>> experimental_value("CNC(=O)C(=O)[C@H](CC1CC1)NC(=O)[C@@H]1C[C@]2(CC(c3cccc(Cl)c3)=NO2)CN1C(=O)[C@@H](NC(=O)[C@H]1C[C@@H]1C(C)C)C(C)(C)C [Compound 755]")
"< 100 nM"
>>> experimental_value("CCC[C@H](NC(=O)[C@@H]1C[C@]2(CC(c3ccc(C)c(Cl)c3)=NO2)CN1C(=O)[C@@H](NC(=O)CC1CCCCC1)C(C)(C)C)C(=O)C(=O)NC1CC1 [Compound 3]")
"< 100 nM"
>>> experimental_value("CCC[C@H](NC(=O)[C@@H]1C[C@]2(CC(c3cccc(Cl)c3)=NO2)CN1C(=O)[C@@H](NC(=O)CC1CCCCC1)C(C)(C)C)C(=O)C(=O)N1CC(OCC)C1 [Compound 133]")
"100 to 500 nM"
>>> experimental_value("CCC[C@H](NC(=O)[C@@H]1C[C@]2(CC(c3cc(C)c(OC)c(Cl)c3)=NO2)CN1C(=O)[C@@H](NC(=O)CC1CCCCC1)C(C)(C)C)C(=O)C(N)=O [Compound 640]")
"< 100 nM"
>>> experimental_value("CCC[C@H](NC(=O)[C@@H]1C[C@]2(CC(c3cccc(Cl)c3)=NO2)CN1C(=O)[C@H](Cc1ccc(OC(C)C)cc1)NC(C)=O)C(=O)C(=O)NC1CC1 [Compound 332]")
"100 to 500 nM"
>>> experimental_value("COc1cc(OC)c(C2=NO[C@]3(C2)C[C@@H](C(=O)N[C@@H](CC2CC2)C(=O)C(N)=O)N(C(=O)[C@@H](NC(=O)CC2(C)CCOCC2)C(C)(C)C)C3)cc1Cl [Compound 529]")
"< 100 nM"
